# Test system: LXRa:RXRa (NR concentration 270 nM, RXRa partner concentration 90 nM)
# protocol.description: PBM binding z-score (relative to random genomic background probes); higher = stronger binding; sequences stand for … in GC…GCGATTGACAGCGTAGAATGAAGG
Could you label it fulfilled if measured PBM binding z-score is 2 or higher, and not fulfilled otherwise?

{"columns": ["sequence.string", "assigned.label"],
 "data": [
  ["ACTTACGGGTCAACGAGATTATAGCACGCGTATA", "fulfilled"],
  ["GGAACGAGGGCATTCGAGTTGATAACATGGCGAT", "not fulfilled"],
  ["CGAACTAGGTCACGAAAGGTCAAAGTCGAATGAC", "fulfilled"],
  ["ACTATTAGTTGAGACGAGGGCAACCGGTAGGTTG", "not fulfilled"],
  ["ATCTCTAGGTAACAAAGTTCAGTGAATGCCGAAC", "not fulfilled"],
  ["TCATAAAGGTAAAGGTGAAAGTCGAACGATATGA", "not fulfilled"],
  ["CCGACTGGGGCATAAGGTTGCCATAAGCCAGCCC", "not fulfilled"],
  ["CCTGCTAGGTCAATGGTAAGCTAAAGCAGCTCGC", "fulfilled"],
  ["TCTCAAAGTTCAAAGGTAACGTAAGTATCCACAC", "fulfilled"],
  ["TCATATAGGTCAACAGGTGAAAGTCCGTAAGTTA", "fulfilled"],
  ["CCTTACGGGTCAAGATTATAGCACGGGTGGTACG", "fulfilled"],
  ["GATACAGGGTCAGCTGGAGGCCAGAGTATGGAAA", "fulfilled"],
  ["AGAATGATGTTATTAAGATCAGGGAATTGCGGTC", "not fulfilled"],
  ["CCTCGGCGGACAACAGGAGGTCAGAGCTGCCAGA", "not fulfilled"],
  ["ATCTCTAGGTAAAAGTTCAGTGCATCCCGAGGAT", "not fulfilled"],
  ["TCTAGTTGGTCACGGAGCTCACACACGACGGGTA", "not fulfilled"],
  ["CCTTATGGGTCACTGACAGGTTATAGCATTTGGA", "fulfilled"],
  ["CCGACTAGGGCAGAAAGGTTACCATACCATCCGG", "not fulfilled"],
  ["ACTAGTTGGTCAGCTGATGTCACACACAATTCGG", "not fulfilled"],
  ["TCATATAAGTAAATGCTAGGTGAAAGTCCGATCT", "not fulfilled"],
  ["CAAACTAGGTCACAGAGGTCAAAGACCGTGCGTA", "fulfilled"],
  ["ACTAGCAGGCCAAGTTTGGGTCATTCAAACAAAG", "not fulfilled"],
  ["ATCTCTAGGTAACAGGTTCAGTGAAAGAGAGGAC", "not fulfilled"],
  ["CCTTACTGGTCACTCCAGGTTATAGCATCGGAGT", "fulfilled"],
  ["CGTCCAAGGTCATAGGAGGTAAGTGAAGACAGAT", "fulfilled"],
  ["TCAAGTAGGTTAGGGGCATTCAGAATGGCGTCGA", "not fulfilled"],
  ["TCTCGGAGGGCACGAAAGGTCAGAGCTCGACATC", "fulfilled"],
  ["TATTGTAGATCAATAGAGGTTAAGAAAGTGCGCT", "fulfilled"],
  ["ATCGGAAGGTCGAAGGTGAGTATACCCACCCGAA", "not fulfilled"]
]}

###

Overview of recorded PBM binding z-score for various sequences
# Tested on: VDR homodimer (NR concentration 270 nM)
# protocol.description: PBM binding z-score (relative to random genomic background probes); higher = stronger binding; sequences stand for … in GC…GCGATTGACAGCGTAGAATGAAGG
quantity.measured: PBM binding z-score

{"columns": ["sequence.string", "quantity.measured", "meas.value"],
 "data": [
  ["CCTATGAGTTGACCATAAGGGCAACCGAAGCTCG", "PBM binding z-score", 0.847],
  ["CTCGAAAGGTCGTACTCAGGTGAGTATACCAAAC", "PBM binding z-score", 1.47],
  ["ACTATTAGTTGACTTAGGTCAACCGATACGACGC", "PBM binding z-score", 1.41],
  ["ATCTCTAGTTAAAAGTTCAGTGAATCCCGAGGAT", "PBM binding z-score", 2.12],
  ["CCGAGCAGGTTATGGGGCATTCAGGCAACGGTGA", "PBM binding z-score", -0.392],
  ["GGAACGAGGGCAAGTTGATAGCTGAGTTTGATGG", "PBM binding z-score", 1.84],
  ["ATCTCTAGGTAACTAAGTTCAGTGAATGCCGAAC", "PBM binding z-score", 2.04],
  ["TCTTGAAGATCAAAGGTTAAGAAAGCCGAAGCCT", "PBM binding z-score", -0.364],
  ["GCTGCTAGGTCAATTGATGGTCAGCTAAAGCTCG", "PBM binding z-score", -0.476],
  ["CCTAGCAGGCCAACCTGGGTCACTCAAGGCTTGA", "PBM binding z-score", -0.163],
  ["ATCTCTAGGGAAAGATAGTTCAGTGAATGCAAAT", "PBM binding z-score", 0.635],
  ["TAGCCGAGGTCAGATCGGGCCAGTATACGCTATA", "PBM binding z-score", 2.08],
  ["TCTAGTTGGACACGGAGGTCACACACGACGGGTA", "PBM binding z-score", 2.67],
  ["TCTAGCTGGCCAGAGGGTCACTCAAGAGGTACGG", "PBM binding z-score", 0.32],
  ["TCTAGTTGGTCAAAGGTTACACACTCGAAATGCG", "PBM binding z-score", 1.23],
  ["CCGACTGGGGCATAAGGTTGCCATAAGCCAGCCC", "PBM binding z-score", -0.0503],
  ["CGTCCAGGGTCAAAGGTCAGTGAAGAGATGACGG", "PBM binding z-score", 3.04],
  ["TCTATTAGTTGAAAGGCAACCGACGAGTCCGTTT", "PBM binding z-score", 1.08],
  ["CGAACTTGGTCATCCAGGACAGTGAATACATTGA", "PBM binding z-score", 0.3],
  ["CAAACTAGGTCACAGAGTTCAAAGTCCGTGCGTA", "PBM binding z-score", 9.52],
  ["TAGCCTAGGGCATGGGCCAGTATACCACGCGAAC", "PBM binding z-score", -0.21]
]}

###

# System: RARb homodimer (NR concentration 270 nM)
# protocol.description: PBM binding z-score (relative to random genomic background probes); higher = stronger binding; sequences stand for … in GC…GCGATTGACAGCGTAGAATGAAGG
Could you label it Yes if measured PBM binding z-score is 1 or higher, and No otherwise?

{"columns": ["sequence.string", "test.target", "assigned.label"],
 "data": [
  ["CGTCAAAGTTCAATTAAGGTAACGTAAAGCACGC", "RARb homodimer (NR concentration 270 nM)", "Yes"],
  ["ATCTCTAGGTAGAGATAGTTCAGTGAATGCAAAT", "RARb homodimer (NR concentration 270 nM)", "No"],
  ["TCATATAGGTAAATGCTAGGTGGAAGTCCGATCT", "RARb homodimer (NR concentration 270 nM)", "No"],
  ["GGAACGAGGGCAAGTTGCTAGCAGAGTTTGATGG", "RARb homodimer (NR concentration 270 nM)", "Yes"],
  ["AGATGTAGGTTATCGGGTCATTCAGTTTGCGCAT", "RARb homodimer (NR concentration 270 nM)", "Yes"],
  ["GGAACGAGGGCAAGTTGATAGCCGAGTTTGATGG", "RARb homodimer (NR concentration 270 nM)", "Yes"],
  ["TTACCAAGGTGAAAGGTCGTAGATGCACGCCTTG", "RARb homodimer (NR concentration 270 nM)", "Yes"],
  ["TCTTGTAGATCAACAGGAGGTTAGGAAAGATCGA", "RARb homodimer (NR concentration 270 nM)", "No"],
  ["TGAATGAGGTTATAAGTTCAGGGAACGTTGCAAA", "RARb homodimer (NR concentration 270 nM)", "Yes"],
  ["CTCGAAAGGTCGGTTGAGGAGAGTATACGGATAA", "RARb homodimer (NR concentration 270 nM)", "Yes"],
  ["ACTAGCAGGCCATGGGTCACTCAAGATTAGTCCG", "RARb homodimer (NR concentration 270 nM)", "Yes"],
  ["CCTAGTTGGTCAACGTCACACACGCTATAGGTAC", "RARb homodimer (NR concentration 270 nM)", "Yes"],
  ["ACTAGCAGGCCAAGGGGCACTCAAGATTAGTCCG", "RARb homodimer (NR concentration 270 nM)", "No"],
  ["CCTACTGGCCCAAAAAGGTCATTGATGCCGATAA", "RARb homodimer (NR concentration 270 nM)", "Yes"],
  ["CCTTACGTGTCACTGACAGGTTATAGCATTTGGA", "RARb homodimer (NR concentration 270 nM)", "Yes"],
  ["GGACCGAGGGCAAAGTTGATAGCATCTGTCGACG", "RARb homodimer (NR concentration 270 nM)", "Yes"],
  ["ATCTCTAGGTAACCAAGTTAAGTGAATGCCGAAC", "RARb homodimer (NR concentration 270 nM)", "No"],
  ["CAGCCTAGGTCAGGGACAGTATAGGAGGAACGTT", "RARb homodimer (NR concentration 270 nM)", "Yes"],
  ["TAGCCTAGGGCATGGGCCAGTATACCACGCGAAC", "RARb homodimer (NR concentration 270 nM)", "No"]
]}

Recorded values, source the supplement of paper PMC6555819.
